Target: Bifunctional epoxide hydrolase 2 (Homo sapiens) (UniProt P34913)
Sequence (P34913 whole entry, looked up): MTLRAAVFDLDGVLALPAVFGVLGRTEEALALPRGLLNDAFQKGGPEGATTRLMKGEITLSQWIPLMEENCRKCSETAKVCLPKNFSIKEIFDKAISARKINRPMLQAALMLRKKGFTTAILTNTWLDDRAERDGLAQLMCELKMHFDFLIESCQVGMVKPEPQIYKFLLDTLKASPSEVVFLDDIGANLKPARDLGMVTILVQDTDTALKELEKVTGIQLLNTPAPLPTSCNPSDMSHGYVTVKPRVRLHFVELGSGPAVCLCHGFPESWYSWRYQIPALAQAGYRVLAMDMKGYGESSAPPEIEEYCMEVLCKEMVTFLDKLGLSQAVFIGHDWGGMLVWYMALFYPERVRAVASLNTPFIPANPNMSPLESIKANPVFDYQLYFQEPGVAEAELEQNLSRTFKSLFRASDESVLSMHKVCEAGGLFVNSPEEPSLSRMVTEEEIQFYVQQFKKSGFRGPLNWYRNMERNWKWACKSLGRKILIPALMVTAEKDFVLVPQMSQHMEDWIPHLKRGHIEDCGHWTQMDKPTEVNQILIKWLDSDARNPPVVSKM
Assay: sEH enzyme activity blockers – biochemical, human sEH, primary screen (AID 707)
Settings: recombinant human sEH enzymatic activity assay; at 2 µM; stronger effect = higher value
Screen size: about 91,000 compounds; about 310 (0.34%) were called active. This excerpt belongs to a sample that is enriched for actives.
endpoint label: inhibition (%)
All answers are understood in %, so give the number only.

Query: What value of inhibition has been recorded for this entry: O=c1cc(N2CCN(Cc3ccccc3)CC2)c(-c2ccccc2)n[nH]1
Response: 5.8

Query: Fill in the blank: the reported inhibition of CCOC(=O)COc1cc(OCC(=O)OCC)c2c(=O)cc(-c3ccccc3)oc2c1 is ____.
Response: -14.8

Query: Which inhibition is reported for this compound? COc1cc(C2C(C(=O)OCCC#N)=C(C)NC3=C2S(=O)(=O)c2ccccc23)cc(OC)c1OC (centres undefined)
Response: 8.9

Query: Can you look up the measured inhibition of O=C(COC(=O)c1ccccc1NC(=O)c1ccco1)Nc1ccc2c(c1)OC(F)(F)O2 for me?
Response: 28.3

* * *

Target: Bifunctional epoxide hydrolase 2 (Homo sapiens) (UniProt P34913)
Test: sEH enzyme activity blockers – biochemical, human sEH, primary screen (AID 707)
Details: recombinant human sEH enzymatic activity assay; at 2 µM; stronger effect = higher value
The whole screen tested about 91,000 compounds, of which about 310 (0.34%) were called active. Only a selection was taken, and actives are over-represented in it overall.
endpoint label: inhibition (%)
Report the figure in % without appending any unit label.

Example compounds with recorded inhibition:
> print(dat)
                           smiles.structure                              assay.target  endpoint.label  assay.value
1    CC(C)(CCl)C(=O)Nc1ccc(Sc2ccc(F)cc2)cc1  Bifunctional epoxide hydrolase 2 (Homo sapiens) (UniProt P34913)      inhibition         28.4
2  COc1cc(OC)c(/C=N/NC(=O)c2ccc([N+](=O)[O-])cc2)cc1Br  Bifunctional epoxide hydrolase 2 (Homo sapiens) (UniProt P34913)      inhibition         35.2

Below: the item to evaluate.
Query: What measured inhibition goes with Cc1cc([N+](=O)[O-])c(N2CCC[C@@H]2C(=O)O)c([N+](=O)[O-])c1 ?
Response: 3.1

* * *

Listed here: items and their measured inhibition.
Molecular target: Bifunctional epoxide hydrolase 2 (Homo sapiens)
Experiment: sEH enzyme activity blockers – biochemical, human sEH, primary screen (AID 707)
Settings: recombinant human sEH enzymatic activity assay; at 2 µM; stronger effect = higher value
Among all 91,000 compounds or so, about 310 (0.34%) were called active. Many of the other results were omitted from the sample, so actives are more common in it than they were.

// worked examples, inhibition included
> print(dat)
                                   compound                              assay.target  endpoint.label       assay.value
1  CC(Oc1ccc(Cl)cc1Cl)C(=O)/C=C/N(C)C (stereo unspecified)  Bifunctional epoxide hydrolase 2 (Homo sapiens)      inhibition  15.1% (inactive)
2  O=C(CSc1ccc(/C=N/NC(=O)c2cccc(F)c2)o1)Nc1ccccc1  Bifunctional epoxide hydrolase 2 (Homo sapiens)      inhibition    79% (inactive)
3  COCCCn1c(SCc2cccc(OC)c2)nc2cc(OC)c(OC)cc2c1=N  Bifunctional epoxide hydrolase 2 (Homo sapiens)      inhibition   7.8% (inactive)
4  O=C(Nc1ccc2oc(-c3ccc4ccccc4c3)nc2c1)c1cccs1  Bifunctional epoxide hydrolase 2 (Homo sapiens)      inhibition  34.6% (inactive)
5  CN(C)/C=C(\C#N)C(=O)c1cccnc1Oc1ccc(F)cc1F  Bifunctional epoxide hydrolase 2 (Homo sapiens)      inhibition  12.8% (inactive)

Would you kindly look at the next entry?
Query: Report inhibition for CN(C)/C(CN1CCCCC1)=C1\N=C(c2ccccc2)OC1=O please.
Response: 6.9% (inactive)

Where these numbers come from: PubChem BioAssay AID707
